Test system: MDA-MB-231 cells
Method: Cell proliferation assay (CellTiter-Glo), MDA-MB-231
Format: cell-based
Test Context: Homo sapiens, MDA-MB-231, 72 h, 72 h treatment, Celltiter-Glo luminescence
pIC50: −log10 of the molar value.
Property Measured: pIC50

INSERT INTO measurements (smiles_record, test_system, value) VALUES
  ('C[C@@H]1CN(CC(=O)N2CC(C)(C)c3c2cc(Cc2ccc(F)cc2)c2nc(C(F)(F)F)cn32)[C@@H](CN2CCN(CC(F)(F)F)C[C@H]2C)CN1', 'MDA-MB-231 cells', 6.74),
  ('C[C@@H]1CN(CC(=O)N2CC(C)(C)c3c2cc(Cc2ccc(F)cc2)c2cnc(C4CCOCC4)n32)[C@@H](CN2CCOC[C@H]2C)CN1', 'MDA-MB-231 cells', 6.85),
  ('C[C@@H]1CN(CC(=O)N2CC(C)(C)c3c2cc(C(F)(F)CC2CC2)c2ncnn32)[C@@H](CN2CCOC[C@H]2C)CN1', 'MDA-MB-231 cells', 6.89);
